- target.under.test: human GCG receptor (human, UniProt P47871 26-477)
- Sequence (P47871 26-477): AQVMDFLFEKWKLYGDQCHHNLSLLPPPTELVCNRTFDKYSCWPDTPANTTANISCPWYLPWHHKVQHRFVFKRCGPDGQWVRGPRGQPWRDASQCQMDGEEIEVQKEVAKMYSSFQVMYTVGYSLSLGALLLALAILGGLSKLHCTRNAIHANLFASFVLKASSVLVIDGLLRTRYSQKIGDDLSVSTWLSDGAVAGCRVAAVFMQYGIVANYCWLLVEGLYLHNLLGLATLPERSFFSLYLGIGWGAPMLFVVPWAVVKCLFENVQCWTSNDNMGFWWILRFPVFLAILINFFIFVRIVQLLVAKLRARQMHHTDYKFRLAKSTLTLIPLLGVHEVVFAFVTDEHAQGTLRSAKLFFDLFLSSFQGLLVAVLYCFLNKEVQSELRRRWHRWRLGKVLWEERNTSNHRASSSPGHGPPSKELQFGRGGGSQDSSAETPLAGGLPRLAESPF
- run.description: cell-based or functional assay
Bridge positions count the residues as written; N and C are the ends. Square brackets hold non-standard residues; d marks the D form. Ends that are not written are not given here. * marks the point of attachment. Acetyl(2-(4-imidazolyl)) = O=C(Cc1c[nH]cn1)*; Aib = CC(C)(N)C(=O)O
Lab note - cut at 0.9% for In vitro activity compared to native peptide (%) vs Glucagon: Yes if strictly below, No if not.

> print(dat)
                                      binder  assigned.category
 1  H[Aib]QGTFTSDVSKYLDGQAAQEFVAWLLAGGGPSSGAPPPSC [Triple agonist of SEQ ID NO: 10]                Yes
 2  H[Aib]QGTFTSDYSKYLDEKACKDFVQWLLDGGPSSGAPPPS (bridge 16-20) [Triple agonist of SEQ ID NO: 32]                 No
 3  {Acetyl(2-(4-imidazolyl))}-[Aib]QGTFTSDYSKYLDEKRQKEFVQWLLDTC (bridge 15-19) [Triple agonist of SEQ ID NO: 82]                 No
 4  H[Aib]QGTFTSDVSSYLDGQAAKEFIAWLVKGC [Triple agonist of SEQ ID NO: 1]                Yes
 5  H[Aib]QGTFTSDVSSYLLGQQQKEFIAWLVKGC [Triple agonist of SEQ ID NO: 4]                Yes
 6  {Acetyl(2-(4-imidazolyl))}-[Aib]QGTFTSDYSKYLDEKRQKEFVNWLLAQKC (bridge 15-19) [Triple agonist of SEQ ID NO: 93]                Yes
 7  {Acetyl(2-(4-imidazolyl))}-[Aib]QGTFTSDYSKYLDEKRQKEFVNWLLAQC (bridge 15-19) [Triple agonist of SEQ ID NO: 86]                Yes
 8  Y[Aib]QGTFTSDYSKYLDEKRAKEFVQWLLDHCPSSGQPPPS (bridge 16-20) [Triple agonist of SEQ ID NO: 96]                 No
 9  Y[Aib]QGTFTSDYSKYLDEKRAKEFVQWLLDHHCSSGQPPPS (bridge 16-20) [Triple agonist of SEQ ID NO: 43]                 No
10  {Acetyl(2-(4-imidazolyl))}-GQGTFTSDLSIQYEEEAQQDFVEWLKDTGPSSGAPPPSHG [Triple agonist of SEQ ID NO: 20]                Yes
